Numbers sourced from ChEMBL document CHEMBL1201862.

- System: NCI-H226
- assay name: NCI tumour cell line growth inhibition, 48 h
The source made the active and inactive calls. Cut-off read from the data, not from the text of the source: active = GI50 up to about 1.1 µM and inactive = higher.
Lab note: assign the record to one of 1 (active), -1 (inactive)

1. O=C(Cc1csc2[n+]1C(=O)/C(=C/c1ccc(Cl)cc1)S2)Nc1ccccc1 = -1
2. CCN(CC)CCCNC(=O)c1cc2cc(NC(=O)c3cc4cc([N+](=O)[O-])ccc4[nH]3)ccc2[nH]1 = -1
3. CCCCSCC(NC(=O)/C=C/c1c(C)[nH]c(=O)[nH]c1=O)C(=O)OC (centres undefined) = -1
4. Cc1ccc2c(c1)C1(OC(=O)c3ccccc31)c1ccc(F)cc1O2 (centres undefined) = -1
5. N#CNC1=NC(CCCC(=O)Nc2cccc([N+](=O)[O-])c2)=C(c2nc3ccccc3[nH]2)C(N)N1 (centres undefined) = -1

## Task Dear colleague, could you share the recorded outcome for O=C(O)C1C(Br)(c2ccccc2)C1(Br)c1ccccc1 (centres undefined) when you have a moment?
## Result -1

## Task Follow-up entry: CN(C)CCn1c(=O)c2ccc3c4c(nn3CCN(C)C)c3cc(O)ccc3n(c1=O)c24
## Result 1

## Task Follow-up entry: O=c1c2sc3ccccc3sc=2c(=O)c2c(Cl)c(Cl)c(Cl)c(Cl)c12
## Result -1

## Task Follow-up entry: C=C[C@H]1CN2CCc3c([nH]c4c([C@@H]5CCCN5C)c(O)ccc34)[C@@H]2C[C@@H]1C[C@H]1c2[nH]c3ccccc3c2CCN1C
## Result -1

###

- Test system: SK-MEL-2
- assay name: NCI tumour cell line growth inhibition, 48 h
Calls of active or inactive are those of the source. Cut-off read from the data, not from the text of the source: active = GI50 up to about 1.1 µM and inactive = higher.
Lab note: assign the record to one of active, inactive

1. Cc1ccc2c(c1)C1(OC(=O)c3ccccc31)c1ccc(F)cc1O2 (stereo unspecified) = inactive
2. O=c1cccc2n1C[C@H]1CNC[C@H]2C1 = inactive
3. COC1=C(NC(C)=O)C(=O)c2nc3n(c2C1=O)CCC3 = inactive
4. [N-]=[N+]=NCc1cccc(Nc2cc(=O)[nH]c(=O)[nH]2)c1 = inactive
5. Cc1ccc(S(=O)(=O)NC(=O)Nc2nc(Cl)cc(Cl)n2)cc1 = inactive

## Task Dear colleague, could you share the recorded outcome for CCCCC/C=C\C=C1\C(=O)C=C[C@@H]1C/C=C\CCCC(=O)O when you have a moment?
## Result inactive

## Task Follow-up entry: CCC(C(C)N1CC(=O)NC(=O)C1)N1CC(=O)NC(=O)C1 (stereo unspecified)
## Result inactive

## Task Follow-up entry: Cc1ccc(N2C(=O)/C(=C3\Sc4c(nc(C)[nH]c4=O)N3c3ccccc3)SC2=S)cc1
## Result inactive

## Task Follow-up entry: Cn1c(=O)c2c(nc(N/N=C3/SCC(=O)N3Cc3ccccc3)n2C)n(C)c1=O
## Result inactive

## Task Follow-up entry: CC1CCC2(CC1)NC1=C(CC(C)CC1)C1=C2CC(C)CC1 (stereo unspecified)
## Result inactive

## Task Follow-up entry: C=C[C@H]1CN2CCc3c([nH]c4c([C@@H]5CCCN5C)c(O)ccc34)[C@@H]2C[C@@H]1C[C@H]1c2[nH]c3ccccc3c2CCN1C
## Result inactive

###

- Test system: MDA-MB-231
- assay name: NCI tumour cell line growth inhibition, 48 h
Calls of active or inactive are those of the source. Rule as the data show it: active = GI50 up to about 1.1 µM and inactive = higher.
GI50 reference

Solved cases below.
1. Cn1c(=O)c2c(nc(N/N=C3/SCC(=O)N3Cc3ccccc3)n2C)n(C)c1=O = 60.7 µM (inactive)
2. Fc1cccc(F)c1C1SCc2nc3cc(Cl)ccc3n21 (stereo unspecified) = 55.1 µM (inactive)
3. NCCc1nc(-c2nc(C(=O)O)cs2)cs1 = > 100 µM (inactive)
4. CC(=O)Oc1c2oc3ccc(Cl)cc3c(=O)c2c(O)c2ccsc12 = 28.2 µM (inactive)
5. COC(=O)c1c(O)ccc2[nH]c3c(O)c4ccccc4cc3c12 = 75 µM (inactive)

Next up:
## Task Using the record for CCC/C(Cl)=N/OC(=O)Nc1cccc(F)c1 , report its GI50.
## Result 13.1 µM (inactive)
